Assay: growth inhibition of DIPG glioma cells, dose response, cell-based, SU-DIPG-XIII, MIPE4.0, CellTiter-Glo, qHTS (AID 1347061);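 also: cells exposed to compound for 48 hours before readout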
Settings: SU-DIPG-XIII viability, CellTiter-Glo ATP luminescence
Inconclusive results are not listed. The source made the active and inactive calls. The limit is not given here; nearly all actives have AC50 up to about 37 µM.
Labels: True = active, False = inactive

[[record]]
molecule = "CC(C)Oc1ccc2c(=O)c(-c3ccccc3)coc2c1"
label_value = "False"

[[record]]
molecule = "NCCc1ccc(O)c(O)c1"
label_value = "False"

[[record]]
molecule = "NS(=O)(=O)c1cc2c(cc1Cl)NCNS2(=O)=O"
label_value = "False"

[[record]]
molecule = "Clc1ccc2c(c1)C(N1CCNCC1)=Nc1ccccc1O2"
label_value = "False"

[[record]]
molecule = "OCCN1C[C@H](O)[C@@H](O)[C@H](O)[C@H]1CO"
label_value = "False"

[[record]]
molecule = "CCc1nc(N)nc(N)c1-c1ccc(Cl)cc1"
label_value = "False"

[[record]]
molecule = "CC(C)Cc1ccc(C(C)C(=O)O)cc1 (stereo not drawn)"
label_value = "False"

[[record]]
molecule = "CC(C)C(=O)Nc1ccc([N+](=O)[O-])c(C(F)(F)F)c1"
label_value = "False"

[[record]]
molecule = "COc1cc2nc(N(C)CCCNC(=O)C3CCCO3)nc(N)c2cc1OC (stereo not drawn)"
label_value = "False"

[[record]]
molecule = "CC1COc2c(N3CCN(C)CC3)c(F)cc3c(=O)c(C(=O)O)cn1c23 (stereo not drawn)"
label_value = "False"

[[record]]
molecule = "Cc1noc(NS(=O)(=O)c2ccc(N)cc2)c1C"
label_value = "False"

[[record]]
molecule = "OC(Cn1cncn1)(Cn1cncn1)c1ccc(F)cc1F"
label_value = "False"

[[record]]
molecule = "COc1ccc2c(c1)c(CC(=O)O)c(C)n2C(=O)c1ccc(Cl)cc1"
label_value = "True"

[[record]]
molecule = "Nc1nc2ccc(OC(F)(F)F)cc2s1"
label_value = "False"

[[record]]
molecule = "C#C[C@]1(O)CC[C@H]2[C@@H]3CCC4=CC(=O)CC[C@@H]4[C@H]3CC[C@@]21CC"
label_value = "False"

[[record]]
molecule = "CCC(C)(C)C(=O)O[C@H]1C[C@@H](C)C=C2C=C[C@H](C)[C@H](CC[C@@H]3C[C@@H](O)CC(=O)O3)[C@H]21"
label_value = "False"

[[record]]
molecule = "CC(=O)OCC(CCn1cnc2cnc(N)nc21)COC(C)=O"
label_value = "False"

[[record]]
molecule = "Clc1cccc(Cl)c1NC1=NCCN1"
label_value = "False"

[[record]]
molecule = "CN(C)CCCN1c2ccccc2CCc2ccc(Cl)cc21"
label_value = "True"

[[record]]
molecule = "S=c1nc[nH]c2nc[nH]c12"
label_value = "False"

[[record]]
molecule = "CCc1cccc2c3c([nH]c12)C(CC)(CC(=O)O)OCC3 (stereo not drawn)"
label_value = "False"

[[record]]
molecule = "CC(C)C1CCC(C(=O)N[C@H](Cc2ccccc2)C(=O)O)CC1 (stereo partly drawn)"
label_value = "False"

[[record]]
molecule = "CC(=O)OCC(=O)[C@@]12OC(C)(C)O[C@@H]1C[C@H]1[C@@H]3C[C@H](F)C4=CC(=O)C=C[C@]4(C)[C@@]3(F)[C@@H](O)C[C@@]12C"
label_value = "False"


Cited source for all entries: PubChem BioAssay
